These measurements were taken from PubChem BioAssay (NCI).

Here the recorded TGI is given for each entry.
Test system: SK-MEL-2 melanoma
assay-protocol: NCI tumour cell line growth inhibition, 48 h

Some solved entries appear below for comparison.
Cc1ccc(NC(=O)CSc2nc(C)nc3c2sc(=S)n3-c2ccccc2)cc1 = > 10 µM
O=C(COc1ccc(OCC(=O)N2C(=O)CSC2=Nc2ccccc2)cc1)N1C(=O)CSC1=Nc1ccccc1 = > 100 µM

Tell me its TGI given CC1=C2C[C@H]3[C@@H](CC[C@@H]4CC(NS(C)(=O)=O)CC[C@@]43C)[C@@H]2CC[C@@]2(C1)O[C@@H]1C[C@H](C)CN[C@H]1[C@H]2C (stereo partly drawn) as the entry.
15.4 µM

Tell me its TGI given COc1ccc(C2CC(c3ccccc3)=Nc3c(-c4ccccc4)nnn32)cc1 (stereo not drawn) as the entry.
> 100 µM

Tell me its TGI given CC(C)c1ccc(C2C3=C(N=C4SCC(=O)N42)C(=O)c2ccccc23)cc1 (stereo not drawn) as the entry.
> 100 µM
